target: 5-HT2B receptor (Homo sapiens); construct: expressed in transfected cells; host or cells: HEK293, stably transfected; assay: 5-HT2B receptor radioligand binding ([3H]LSD); settings: read-out: 5-HT2B Receptor Ki
Sequence (P41595 whole entry): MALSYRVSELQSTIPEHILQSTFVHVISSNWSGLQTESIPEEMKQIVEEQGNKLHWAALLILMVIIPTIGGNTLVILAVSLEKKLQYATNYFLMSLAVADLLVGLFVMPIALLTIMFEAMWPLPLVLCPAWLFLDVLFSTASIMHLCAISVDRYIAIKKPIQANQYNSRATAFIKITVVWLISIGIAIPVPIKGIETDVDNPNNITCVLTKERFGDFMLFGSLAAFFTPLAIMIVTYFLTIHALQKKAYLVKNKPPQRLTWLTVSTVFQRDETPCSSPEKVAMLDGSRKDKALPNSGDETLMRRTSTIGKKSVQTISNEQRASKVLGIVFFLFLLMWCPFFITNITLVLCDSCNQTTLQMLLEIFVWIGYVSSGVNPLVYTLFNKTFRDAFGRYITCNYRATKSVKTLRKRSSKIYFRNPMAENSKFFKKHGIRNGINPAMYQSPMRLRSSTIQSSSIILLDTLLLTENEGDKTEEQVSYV
pKi: −log10 of the molar value.
In this section, each of the compounds is paired with its reported pKi.
QUANTITY MEASURED: pKi

# COMPOUND, TARGET ENTITY, OBSERVED
records = [
    ("CCN(C)C(=O)[C@@H]1C=C2c3cccc4[nH]cc(c34)C[C@H]2N(CC2CCCC2)C1 [Compound 103]", "5-HT2B receptor (Homo sapiens)", 7.93),
    ("CCN(CC)C(=O)[C@@H]1C=C2c3cccc4[nH]c(Br)c(c34)C[C@H]2N(CCC(F)(F)F)C1 [Compound 42]", "5-HT2B receptor (Homo sapiens)", 6.62),
    ("CCN(CC)C(=O)[C@@H]1C=C2c3cccc4[nH]cc(c34)C[C@H]2N(CC2CCCC2)C1 [Compound 90]", "5-HT2B receptor (Homo sapiens)", 8.68),
    ("CN(C)C(=O)[C@@H]1C=C2c3cccc4[nH]cc(c34)C[C@H]2N(Cc2ccccc2)C1 [Compound 102]", "5-HT2B receptor (Homo sapiens)", 6.77),
    ("CCN(CC)C(=O)[C@@H]1C=C2c3cccc4[nH]cc(c34)C[C@H]2N(Cc2ccc(OC)cc2)C1 [Compound 19]", "5-HT2B receptor (Homo sapiens)", 6.65),
    ("CC[C@@H](C)NC(=O)[C@@H]1C=C2c3cccc4[nH]c(Br)c(c34)C[C@H]2N(C)C1 [Compound 43]", "5-HT2B receptor (Homo sapiens)", 8.02),
    ("CCN(C)C(=O)[C@@H]1C=C2c3cccc4[nH]cc(c34)C[C@H]2N(Cc2cccc(OC)c2)C1 [Compound 92]", "5-HT2B receptor (Homo sapiens)", 5.71),
]
